# assaySystem: δ receptors (Homo sapiens)
# Sequence (P41143 whole entry): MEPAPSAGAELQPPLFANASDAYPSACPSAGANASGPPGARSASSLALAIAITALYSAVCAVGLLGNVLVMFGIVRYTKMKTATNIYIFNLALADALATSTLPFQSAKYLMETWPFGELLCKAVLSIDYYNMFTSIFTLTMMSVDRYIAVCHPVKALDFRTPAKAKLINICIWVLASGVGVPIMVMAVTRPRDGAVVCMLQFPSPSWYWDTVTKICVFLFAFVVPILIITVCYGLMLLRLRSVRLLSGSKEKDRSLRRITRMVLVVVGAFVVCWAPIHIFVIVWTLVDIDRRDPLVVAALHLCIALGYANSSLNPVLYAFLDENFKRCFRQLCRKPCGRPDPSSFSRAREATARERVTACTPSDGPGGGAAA
# assayComment: biochemical
# Format: binding
pKi: −log10 of the molar value.
measurementKind: pKi

**Q:** If you can, please state the reported pKi value of COC(=O)[C@@H]1C[C@H](O)[C@H](O)[C@@H]2[C@@]3(C)C[C@@H](c4ccoc4)OC(=O)[C@H]3CC[C@]21C .
**A:** ~5.00

###

# assaySystem: κ receptors (Homo sapiens)
# Sequence (P41145 whole entry): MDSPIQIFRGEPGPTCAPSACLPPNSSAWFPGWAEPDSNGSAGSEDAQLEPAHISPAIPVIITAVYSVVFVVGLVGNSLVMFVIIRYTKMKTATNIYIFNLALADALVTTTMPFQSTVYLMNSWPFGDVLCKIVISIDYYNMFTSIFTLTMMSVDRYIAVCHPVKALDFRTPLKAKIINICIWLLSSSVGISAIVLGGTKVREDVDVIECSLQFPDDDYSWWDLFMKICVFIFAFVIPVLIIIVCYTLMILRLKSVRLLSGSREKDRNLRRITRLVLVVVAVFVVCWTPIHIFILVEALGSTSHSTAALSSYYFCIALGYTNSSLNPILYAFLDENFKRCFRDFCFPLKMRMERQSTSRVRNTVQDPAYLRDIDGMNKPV
# assayComment: biochemical
# Format: binding
measurementKind: pKi
# pKi is unitless: minus log10 of the molar concentration; print number only

**Q:** If you can, please state the reported pKi value of COC(=O)[C@@H]1C[C@H](OC(=O)C(C)C)C(=O)[C@H]2[C@@]1(C)CC[C@H]1C(=O)O[C@H](c3ccoc3)C[C@]21C [Compound 10] .
**A:** 5.53

**Q:** If you can, please state the reported pKi value of C=C(C)C(=O)O[C@H]1C[C@@H](C(=O)OC)[C@]2(C)CC[C@H]3C(=O)O[C@H](c4ccoc4)C[C@]3(C)[C@H]2C1=O [Compound 11] .
**A:** 6.59
